Each record here notes measured L1210/(L1210 + DFMO) IC50 ratio.
Tested on: L1210 cells + DFMO
Test details: Cytotoxicity in L1210 cells pretreated with DFMO
Type: cell-based, mouse
Experimental setup: fold more toxic in the presence of DFMO
Where a name gives a salt, the structure may show the parent alone.
Answer using only a numeral; do not append any unit.

Example entries and their recorded answers appear below.
Cl.Cl.Cl.NCCCN(CCCN)Cc1c2ccccc2cc2ccccc12 [Compound 8b]    1.3
Cl.Cl.Cl.NCCCCCN(CCCCN)Cc1c2ccccc2cc2ccccc12 [Compound 8g]    1.3

Query string: Query (molecule): Cl.Cl.Cl.Cl.NCCCCCN(CCCCN)CCCNCc1c2ccccc2cc2ccccc12 [Compound 13d] ; field requested: L1210/(L1210 + DFMO) IC50 ratio
Result string: 1.5

Query string: # get_value(readout='L1210/(L1210 + DFMO) IC50 ratio', item= Cl.Cl.Cl.NCCCCNCCCNCc1c2ccccc2cc2ccccc12 [Compound 8c] )
Result string: 2.3

Query string: # get_value(readout='L1210/(L1210 + DFMO) IC50 ratio', item= Cl.Cl.Cl.NCCCCNCCCCNCc1ccc2ccc3cccc4ccc1c2c34 [Compound 27d] )
Result string: 1.1

Query string: Which L1210/(L1210 + DFMO) IC50 ratio reading was recorded for the molecule Cl.Cl.Cl.NCCCCNCCCCNCc1cccc2ccccc12 [Compound 27b] ?
Result string: 1.1

Query string: I have this molecule here, CCCCNCc1c2ccccc2cc2ccccc12 [Compound 35, Monohydrochloride] , and I need its recorded L1210/(L1210 + DFMO) IC50 ratio.
Result string: 0.7

Query string: Query: L1210/(L1210 + DFMO) IC50 ratio; subject: Cl.Cl.Cl.NC1CCC(NCCCCNCc2c3ccccc3cc3ccccc23)CC1 (stereo not drawn) [Compound 31]
Result string: 1.4

Query string: Requested field: L1210/(L1210 + DFMO) IC50 ratio. Item: Cl.Cl.NCCCCNCc1c2ccccc2cc2ccccc12 [Compound 34]
Result string: 0.7

====

Test system: CHO cells
Test details: Cytotoxicity in CHO cells (active polyamine transporter)
Format: cell-based, Chinese hamster
Experimental setup: selectivity for cells with active polyamine transporter
Think of 2 as a floor: if CHO-MG/CHO IC50 ratio stands on it or above, it is 1 (yes); beneath it, 0 (no).

Query string: Decide: CHO-MG/CHO IC50 ratio of Cl.Cl.Cl.NCCCCCN(CCCN)Cc1c2ccccc2cc2ccccc12 [Compound 8f] >= 2?
Result string: 1 (yes)

Query string: In plain terms: is recorded CHO-MG/CHO IC50 ratio at least 2 for Cl.Cl.Cl.NCCCCNCCCNCc1c2ccccc2cc2ccccc12 [Compound 8c] ?
Result string: 1 (yes)

Query string: Kindly determine if CHO-MG/CHO IC50 ratio recorded for Cl.Cl.NCCCCNCc1c2ccccc2cc2ccccc12 [Compound 34] is above or exactly 2.
Result string: 0 (no)

Query string: Can Cl.Cl.Cl.Cl.NCCCCN(CCCCNCCCN)Cc1c2ccccc2cc2ccccc12 [Compound 13e] be said to have CHO-MG/CHO IC50 ratio at or above 2?
Result string: 0 (no)

Query string: Item Cl.Cl.Cl.Cl.NCCCCCN(CCCCN)CCCNCc1c2ccccc2cc2ccccc12 [Compound 13d] with CHO-MG/CHO IC50 ratio of 2 or above?
Result string: 0 (no)
